Every entry's value here was drawn from ChEMBL document CHEMBL4814049.

target under test: Sigma non-opioid intracellular receptor 1 (Homo sapiens, UniProt Q99720)
Sequence (Q99720 whole entry): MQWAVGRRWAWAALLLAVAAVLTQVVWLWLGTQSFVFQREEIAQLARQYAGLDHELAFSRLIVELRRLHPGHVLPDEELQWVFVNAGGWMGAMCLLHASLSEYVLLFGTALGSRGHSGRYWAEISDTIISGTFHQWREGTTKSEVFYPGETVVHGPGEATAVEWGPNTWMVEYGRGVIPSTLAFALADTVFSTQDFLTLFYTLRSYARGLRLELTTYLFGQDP
assay explanation: Inhibition of sigma 1 receptor (unknown origin)
metric: Ki (nM)
Express the result in nM but write the number alone.

Look over these answered cases.
>>> df
                                   compound                         target_under_test  metric  assay_value
0  O=[N+]([O-])C1=Cc2cc(I)ccc2OC1C(F)(F)F (stereo not drawn)  Sigma non-opioid intracellular receptor 1 (Homo sapiens, UniProt Q99720)      Ki         2100
1  C[Si](C)(C)C#Cc1ccc2c(c1)C=C([N+](=O)[O-])C(C(F)(F)F)O2 (stereo not drawn)  Sigma non-opioid intracellular receptor 1 (Homo sapiens, UniProt Q99720)      Ki         1400

Let's switch to this compound now.
Query (compound): CC(=O)NCC#Cc1ccc2c(c1)C=C([N+](=O)[O-])C(C(F)(F)F)O2 (stereo not drawn) ; field requested: Ki 4400
